# TGT: Cathepsin S (UniProt P25774)
# METHOD DESCRIPTION: Cathepsin enzyme inhibition assay (fluorogenic peptide substrate Z-Val-Val-Arg-AMC), Cathepsin S
# Assay type: biochemical, human and mouse
# CONDITION SUMMARY: enzyme 1 nM, substrate 20 μM, pH 6.5; read-out: CatS IC50
Structures can show the parent of a compound that is named as a salt.
ATTRIBUTE MEASURED: IC50

compound="CC(C)(C)OC(=O)N1C[C@H](S(=O)(=O)c2ccccc2Cl)C[C@H]1C(=O)NC(C#N)c1ccccc1 (stereo partly drawn) [Example 36]" result="0.5 nM"
compound="CC(C)(C#N)NC(=O)[C@@H]1C[C@@H](S(=O)(=O)c2ccccc2Cl)CN1C(=O)OC(C)(C)C [Example 33]" result="675 nM"
compound="CCc1ccccc1S(=O)(=O)[C@H]1CN[C@H](C(=O)NC2(C#N)CC2)C1 [Example 11, Hydrochloride]" result="30 nM"
compound="Cc1cc(N2C[C@H](S(=O)(=O)c3ccccc3C(F)(F)F)C[C@@H]2C(=O)NC2(C#N)CC2)n(Cc2ccccc2)n1 [Example 321]" result="68.3 nM"
compound="CCN1CCN(c2ccc(S(=O)(=O)[C@@H]3C[C@@H](C(=O)NC4(C#N)CC4)N(C(=O)OC(C)(C)C)C3)c(Cl)c2)CC1 [Example 138]" result="3.4 nM"
compound="CCN1CCN(c2ccc(S(=O)(=O)[C@@H]3C[C@@H](C(=O)NC4(C#N)CC4)N(C=O)C3)c(Cl)c2)CC1 [Example 143]" result="4.3 nM"
compound="CC(C)C(C(=O)N1C[C@H](S(=O)(=O)c2ccccc2Cl)C[C@H]1C(=O)NC1(C#N)CC1)c1ccc(Cl)cc1 (stereo partly drawn) [Example 432]" result="0.595 nM"
compound="N#CCNC(=O)C12CC(F)(F)CN1CCC2S(=O)(=O)c1ccccc1 (stereo not drawn) [Example 117]" result="86.5 nM"
compound="CC(C)(C)OC(=O)N1C[C@H](S(=O)(=O)c2ccccc2Cl)C[C@H]1C(=O)NC(C)(C#N)c1ccccc1 (stereo partly drawn) [Example 37]" result="1030 nM"
compound="N#CCNC(=O)C12CC(S(=O)(=O)c3ccccc3)CN1CC(F)(F)C2 (stereo not drawn) [Example 115]" result="48 nM"
compound="Cc1cc(N2C[C@H](S(=O)(=O)c3ccc(OCC(F)(F)F)cc3C(F)(F)F)C[C@@H]2C(=O)NC2(C#N)CC2)n(C2CCC2)n1 [Example 392]" result="0.91 nM"
compound="N#CC1(NC(=O)[C@@H]2C[C@H](S(=O)(=O)c3ccccc3C(F)(F)F)CN2)CC1 [Example 159]" result="2610 nM"
compound="COc1cc(C2(C(=O)N3C[C@H](S(=O)(=O)c4ccccc4Cl)C[C@H]3C(=O)NC3(C#N)CC3)CC2)c(Cl)cc1Cl [Example 460]" result="5.85 nM"
compound="Cc1cc(N2C[C@H](S(=O)(=O)c3ccc(-c4ccncn4)cc3C(F)(F)F)C[C@H]2C(=O)NC2(C#N)CC2)n(C2CCC2)n1 [Example 419]" result="0.415 nM"
compound="Cc1cc(N2C[C@H](S(=O)(=O)c3ccccc3)C[C@H]2C(=O)NC2(C#N)CC2)n(-c2ccc(C(F)(F)F)cc2)n1 [Example 261]" result="12 nM"
compound="N#CC1(NC(=O)[C@@H]2C[C@@H](S(=O)(=O)c3ccc(OCC(F)(F)F)cc3Cl)CN2C(=O)C2(c3ccccc3)CCOCC2)CC1 [Example 287]" result="0.175 nM"
compound="N#CC1(NC(=O)[C@@H]2C[C@@H](S(=O)(=O)c3ccc(Cl)cc3Cl)CN2c2ncccc2C(F)(F)F)CC1 [Example 188]" result="6.4 nM"
compound="N#CC1(NC(=O)[C@@H]2C[C@@H](S(=O)(=O)c3ccccc3Cl)CN2C(=O)C2(c3ccc(Cl)cc3)CCC2)CC1 [Example 283]" result="0.12 nM"
compound="N#CC1(NC(=O)[C@@H]2C[C@@H](S(=O)(=O)c3ccccc3)CN2C(=O)c2ccccc2)CC1 [Example 73]" result="12.7 nM"
compound="COC(=O)N1C[C@H](S(=O)(=O)c2ccccc2Cl)C[C@H]1C(=O)NC1(C#N)CC1 [Example 95]" result="7.6 nM"
compound="N#CCNC(=O)[C@@H]1C[C@@H](S(=O)(=O)c2ccccc2Cl)CN1C1CCOCC1 [Example 64]" result="109 nM"
compound="N#CC1(NC(=O)[C@@H]2C[C@@H](S(=O)(=O)c3ccccc3C(F)(F)F)CN2Cc2ccncc2)CC1 [Example 108]" result="5.8 nM"
compound="CC(=O)N1C[C@H](S(=O)(=O)c2ccc(-n3cccn3)cc2C(F)(F)F)C[C@H]1C(=O)NC1(C#N)CC1 [Example 111]" result="0.7 nM"
compound="N#CC1(NC(=O)[C@@H]2C[C@@H](S(=O)(=O)c3ccc(OCC(F)(F)F)cc3Cl)CN2C(=O)C[C@H]2CC[C@H](N)CC2)CC1 [Example 265]" result="1.35 nM"
compound="CN1CCN(c2ccc(S(=O)(=O)[C@@H]3C[C@@H](C(=O)NC4(C#N)CC4)N(C(=O)OC(C)(C)C)C3)c(C(F)(F)F)c2)CC1 [Example 8]" result="0.7 nM"
compound="CC(C)(C)OC(=O)N1CCC(N2CC(S(=O)(=O)c3ccccc3C(F)(F)F)CC2C(=O)NC2(C#N)CC2)CC1 (stereo not drawn) [Example 364]" result="295 nM"
compound="CC(=O)N1C[C@H](S(=O)(=O)c2ccc(-n3ccnc3)cc2C(F)(F)F)C[C@H]1C(=O)NC1(C#N)CC1 [Example 112]" result="0.8 nM"

----------
# TGT: Cathepsin S (UniProt P25774)
# METHOD DESCRIPTION: Cathepsin enzyme inhibition assay (fluorogenic peptide substrate Z-Val-Val-Arg-AMC), Cathepsin S
# Format: biochemical, human and mouse
# CONDITION SUMMARY: enzyme 1 nM, substrate 20 μM, pH 6.5; read-out: CatS IC50
# note: exactly 80 nM is not below, so it is False; use True for IC50 strictly under it

molecule="C=CCN[C@@H](C(=O)N1C[C@H](S(=O)(=O)c2ccccc2OCC=C)C[C@H]1C(=O)NC1(C#N)CC1)c1ccc(Cl)cc1 [Example 455]" label=True
molecule="N#CC1(NC(=O)[C@H]2C[C@H](S(=O)(=O)c3ccccc3C(F)(F)F)CN2c2ccc(F)c(Cl)c2)CC1 [Example 395]" label=False
molecule="CC(=O)N1C[C@H](S(=O)(=O)c2ccccc2C(F)(F)F)C[C@H]1C(=O)NC1(C#N)CC1 [Example 101]" label=True
molecule="CC1(C(=O)N2C[C@H](S(=O)(=O)c3ccc(C4CC4)cc3C(F)(F)F)C[C@H]2C(=O)NC2(C#N)CC2)CC1 [Example 271]" label=True
molecule="N#CCNC(=O)[C@@H]1C[C@@H](S(=O)(=O)c2ccccc2C(F)(F)F)CN1C(=O)c1ccc(F)cc1 [Example 65]" label=True
molecule="N#CC1(NC(=O)[C@@H]2C[C@@H](S(=O)(=O)c3ccc(Cl)cc3Cl)CN2c2ccccc2[N+](=O)[O-])CC1 [Example 167]" label=True
molecule="Cc1cc(N2C[C@H](S(=O)(=O)c3ccccc3C(F)(F)F)C[C@@H]2C(=O)NC2(C#N)CC2)n(CCc2ccccc2)n1 [Example 338]" label=False
molecule="N#CC1(NC(=O)[C@@H]2C[C@@H](S(=O)(=O)c3ccccc3C(F)(F)F)CN2C(=O)C2(c3ccc(Cl)cc3)CCC2)CC1 [Example 360]" label=True
molecule="Cc1cc(N2C[C@H](S(=O)(=O)CC3CC3)C[C@H]2C(=O)NC2(C#N)CC2)n(CCc2ccccc2)n1 [Example 470]" label=False
molecule="Cc1cc(N2C[C@H](S(C)(=O)=O)C[C@H]2C(=O)NC2(C#N)CC2)n(-c2ccc(C(F)(F)F)cc2)n1 [Example 462]" label=False
molecule="N#CC1(NC(=O)[C@@H]2C[C@@H](S(=O)(=O)c3ccccc3Cl)CN2C(=O)Cn2ccc(C(F)(F)F)n2)CC1 [Example 422]" label=True
molecule="Cc1cc(N2C[C@H](S(=O)(=O)c3ccc(OCC(F)(F)F)cc3Cl)C[C@H]2C(=O)NC2(C#N)CC2)n(CCc2ccccc2)n1 [Example 484]" label=True
molecule="N#CC1(NC(=O)[C@@H]2C[C@@H](S(=O)(=O)c3ccccc3Cl)CN2C(=O)OC2CCCC2)CC1 [Example 98]" label=True
molecule="COCCOc1ccc(S(=O)(=O)[C@@H]2C[C@@H](C(=O)NC3(C#N)CC3)N(c3cc(C)nn3C3CCOCC3)C2)c(Cl)c1 [Example 488]" label=True

----------
# TGT: Cathepsin S (UniProt P25774)
# METHOD DESCRIPTION: Cathepsin enzyme inhibition assay (fluorogenic peptide substrate Z-Val-Val-Arg-AMC), Cathepsin S
# Format: biochemical, human and mouse
# CONDITION SUMMARY: enzyme 1 nM, substrate 20 μM, pH 6.5; read-out: CatS IC50
# Method: Cathepsin Enzyme Inhibition Assay Enzyme activity is measured by observing the increase in fluorescence intensity caused by cleavage of a peptide substrate containing a fluorophore whose emission is quenched in the intact peptide. Assay buffer: 100 mM potassium phosphate pH 6.5, EDTA-Na 5 mM, Triton X-100 0.001%, DDT 5 mM. […] Enzyme is added to the substance dilutions in 96-well microtitre plates and the reaction is started with substrate. […] IC50 are calculated by standard methods. […]
pIC50: −log10 of the molar value.
# label = T if pIC50 >= 9 else F

compound="C=CCOc1ccccc1S(=O)(=O)[C@@H]1C[C@@H](C(=O)NC2(C#N)CC2)N(C(=O)OC(C)(C)C)C1 [Example 450]" label=F
compound="CS(=O)(=O)[C@@H]1C[C@@H](C(=O)NC2(C#N)CC2)N(C(=O)C2(c3ccc(Cl)cc3)CC2)C1 [Example 409]" label=F
compound="CC(C)(C)OC(=O)N1C[C@H](S(=O)(=O)c2ccccc2CO)C[C@H]1C(=O)NC1(C#N)CC1 [Example 1]" label=F
compound="N#CC1(NC(=O)[C@H]2C[C@H](S(=O)(=O)c3ccc(OCC(F)(F)F)cc3Cl)CN2C(=O)C2(C(F)(F)F)CC2)CC1 [Example 280]" label=F
compound="N#CCNC(=O)[C@@H]1C[C@@H](S(=O)(=O)c2ccccc2Cl)CN1C(c1ccccc1)C(F)(F)F (some centres unmarked) [Example 57]" label=F
compound="N#CC1(NC(=O)[C@@H]2C[C@@H](S(=O)(=O)c3ccccc3Cl)CN2C(=O)C2(c3ccc(Cl)c(F)c3)CC2)CC1 [Example 446]" label=T
compound="CC(C)(C)OC(=O)NC1(C(=O)N2C[C@H](S(=O)(=O)c3ccc(OCC(F)(F)F)cc3Cl)C[C@H]2C(=O)NC2(C#N)CC2)CC1 [Example 242]" label=F
compound="N#CCNC(=O)[C@@H]1C[C@@H](S(=O)(=O)c2ccccc2C(F)(F)F)CN1C(=O)c1ccncc1 [Example 69]" label=T
compound="N#CC1(NC(=O)[C@@H]2C[C@@H](S(=O)(=O)c3ccccc3C(F)(F)F)CN2c2ccc(F)c(Cl)c2)CC1 [Example 394]" label=F
compound="Cc1cc(N2C[C@H](S(=O)(=O)c3ccccc3C(F)(F)F)C[C@H]2C(=O)NC2(C#N)CC2)n(C2CCC2)n1 [Example 322]" label=T
compound="N#CC1(NC(=O)[C@@H]2C[C@@H](S(=O)(=O)c3ccccc3Cl)CN2C2CCC2)CC1 [Example 84]" label=F
compound="N#CC1(NC(=O)[C@@H]2C[C@@H](S(=O)(=O)c3ccc(OCC(F)(F)F)cc3Cl)CN2C(=O)C2(c3ccc(C(F)(F)F)cc3)CC2)CC1 [Example 310]" label=T
compound="N#CC1(NC(=O)C2CC(S(=O)(=O)c3ccccc3C(F)(F)F)CN2c2ccccc2-c2ccccc2)CC1 (centres unmarked) [Example 343]" label=F
compound="N#CCNC(=O)[C@@H]1C[C@@H](S(=O)(=O)c2ccccc2C(F)(F)F)CN1C(=O)C1CCOCC1 [Example 68]" label=T
compound="COCCN1CCN(c2ccc(S(=O)(=O)[C@@H]3C[C@@H](C(=O)NC4(C#N)CC4)N(C(=O)C4(c5ccc(Cl)nc5)CC4)C3)c(Cl)c2)CC1 [Example 372, Formic Acid]" label=T
compound="Cn1cc(-c2ccc(C3(C(=O)N4C[C@H](S(=O)(=O)c5ccc(OCC(F)(F)F)cc5Cl)C[C@H]4C(=O)NC4(C#N)CC4)CC3)cc2)cn1 [Example 288]" label=T
compound="N#CCNC(=O)[C@@H]1C[C@@H](S(=O)(=O)c2ccccc2)CN1C(=O)c1ccccc1 [Example 52]" label=F
compound="Cc1cc(N2C[C@H](S(C)(=O)=O)C[C@H]2C(=O)NC2(C#N)CC2)n(CC(F)(F)F)n1 [Example 466]" label=F
